# Test system: non-small-cell lung cancer A549 cell line
# test.description: cells
# setup.conditions: Homo sapiens, A549, 48 h, read-out: Cytotoxicity IC50 ± SD, Non-Small-Cell Lung Cancer A549
Structures can show the parent of a compound that is named as a salt.
Measured pIC50, listed per entry.
Scale explanation: pIC50 corresponds to minus log10 of a concentration expressed in moles per litre.

[[record]]
molecule = "CN1CCC(O)CC1"
readout_type = "pIC50"
result = 5.51

[[record]]
molecule = "COC(=O)C1=CCCN(C)C1 [Arecoline hydrobromide, reference compound]"
readout_type = "pIC50"
result = 4.93

[[record]]
molecule = "COc1cccc2c1C(=O)c1c(O)c3c(c(O)c1C2=O)C[C@@](O)(C(=O)CO)C[C@@H]3O[C@H]1C[C@H](N)[C@H](O)[C@H](C)O1 [Doxorubicin, reference compound]"
readout_type = "pIC50"
result = 5.30


According to the records, this molecule O=C(O)C1CCCNC1 (stereo not shown) displays pIC50 of 5.13

pIC50 reported for this molecule `CN1CCC=C(C(=O)O)C1` : 4.04

Query `O=C(O)c1cccnc1` yields pIC50 of 5.48
